Recorded measurements of thermal stability score, one per entry
# Test system: HeLa Kyoto
# experimentalProtocol: thermal stability score vs G1/S (z-score of summed log2 fold changes over temperatures); higher = more thermally stable than in G1/S
# appliedConditions: cell cycle stage: mitosis

constructSequence	thermal stability score
MWRSCLRLRDGGRRLLNRPAGGPSASMSPGPTIPSPARAYAPPTERKRFYQNVSITQGEGGFEINLDHRKLKTPQAKLFTVPSEALAIAVATEWDSQQDTIKYYTMHLTTLCNTSLDNPTQRNKDQLIRAAVKFLDTDTICYRVEEPETLVELQRNEWDPIIEWAEKRYGVEISSSTSIMGPSIPAKTREVLVSHLASYNTWALQGIEFVAAQLKSMVLTLGLIDLRLTVEQAVLLSRLEEEYQIQKWGNIEWAHDYELQELRARTAAGTLFIHLCSESTTVKHKLLKE [ATPAF2]	-1.43
MSDEEARQSGGSSQAGVVTVSDVQELMRRKEEIEAQIKANYDVLESQKGIGMNEPLVDCEGYPRSDVDLYQVRTARHNIICLQNDHKAVMKQVEEALHQLHARDKEKQARDMAEAHKEAMSRKLGQSESQGPPRAFAKVNSISPGSPASIAGLQVDDEIVEFGSVNTQNFQSLHNIGSVVQHSEGKPLNVTVIRRGEKHQLRLVPTRWAGKGLLGCNIIPLQR [PSMD9]	-3.23
MGFNLTFHLSYKFRLLLLLTLCLTVVGWATSNYFVGAIQEIPKAKEFMANFHKTLILGKGKTLTNEASTKKVELDNCPSVSPYLRGQSKLIFKPDLTLEEVQAENPKVSRGRYRPQECKALQRVAILVPHRNREKHLMYLLEHLHPFLQRQQLDYGIYVIHQAEGKKFNRAKLLNVGYLEALKEENWDCFIFHDVDLVPENDFNLYKCEEHPKHLVVGRNSTGYRLRYSGYFGGVTALSREQFFKVNGFSNNYWGWGGEDDDLRLRVELQRMKISRPLPEVGKYTMVFHTRDKGNEVNAERMKLLHQVSRVWRTDGLSSCSYKLVSVEHNPLYINITVDFWFGA [B4GALT4]	-0.781
MDTGVIEGGLNVTLTIRLLMHGKEVGSIIGKKGESVKKMREESGARINISEGNCPERIITLAGPTNAIFKAFAMIIDKLEEDISSSMTNSTAASRPPVTLRLVVPASQCGSLIGKGGCKIKEIRESTGAQVQVAGDMLPNSTERAITIAGIPQSIIECVKQICVVMLETLSQSPPKGVTIPYRPKPSSSPVIFAGGQDRYSTGSDSASFPHTTPSMCLNPDLEGPPLEAYTIQGQYAIPQPDLTKLHQLAMQQSHFPMTHGNTGFSGIESSSPEVKGYWGLDASAQTTSHELTIPNDLIGCIIGRQGAKINEIRQMSGAQIKIANPVEGSTDRQVTITGSAASISLAQYLINVRLSSETGGMGSS [PCBP2]	7.6
MAETYDFLFKFLVIGSAGTGKSCLLHQFIENKFKQDSNHTIGVEFGSRVVNVGGKTVKLQIWDTAGQERFRSVTRSYYRGAAGALLVYDITSRETYNSLAAWLTDARTLASPNIVVILCGNKKDLDPEREVTFLEASRFAQENELMFLETSALTGENVEEAFLKCARTILNKIDSGELDPERMGSGIQYGDASLRQLRQPRSAQAVAPQPCGC [RAB4B]	-2.73
MAAPAQQTTQPGGGKRKGKAQYVLAKRARRCDAGGPRQLEPGLQGILITCNMNERKCVEEAYSLLNEYGDDMYGPEKFTDKDQQPSGSEGEDDDAEAALKKEVGDIKASTEMRLRRFQSVESGANNVVFIRTLGIEPEKLVHHILQDMYKTKKKKTRVILRMLPISGTCKAFLEDMKKYAETFLEPWFKAPNKGTFQIVYKSRNNSHVNREEVIRELAGIVCTLNSENKVDLTNPQYTVVVEIIKAVCCLSVVKDYMLFRKYNLQEVVKSPKDPSQLNSKQGNGKEAKLESADKSDQNNTAEGKNNQQVPENTEELGQTKPTSNPQVVNEGGAKPELASQATEGSKSNENDFS [THUMPD1]	2.04
MSLLRSLRVFLVARTGSYPAGSLLRQSPQPRHTFYAGPRLSASASSKELLMKLRRKTGYSFVNCKKALETCGGDLKQAEIWLHKEAQKEGWSKAAKLQGRKTKEGLIGLLQEGNTTVLVEVNCETDFVSRNLKFQLLVQQVALGTMMHCQTLKDQPSAYSKGFLNSSELSGLPAGPDREGSLKDQLALAIGKLGENMILKRAAWVKVPSGFYVGSYVHGAMQSPSLHKLVLGKYGALVICETSEQKTNLEDVGRRLGQHVVGMAPLSVGSLDDEPGGEAETKMLSQPYLLDPSITLGQYVQPQGVSVVDFVRFECGEGEEAAETE [TSFM]	3.2
MSGNGNAAATAEENSPKMRVIRVGTRKSQLARIQTDSVVATLKASYPGLQFEIIAMSTTGDKILDTALSKIGEKSLFTKELEHALEKNEVDLVVHSLKDLPTVLPPGFTIGAICKRENPHDAVVFHPKFVGKTLETLPEKSVVGTSSLRRAAQLQRKFPHLEFRSIRGNLNTRLRKLDEQQEFSAIILATAGLQRMGWHNRVGQILHPEECMYAVGQGALGVEVRAKDQDILDLVGVLHDPETLLRCIAERAFLRHLEGGCSVPVAVHTAMKDGQLYLTGGVWSLDGSDSIQETMQATIHVPAQHEDGPEDDPQLVGITARNIPRGPQLAAQNLGISLANLLLSKGAKNILDVARQLNDAH [HMBS]	-1.79
MRRVTLFLNGSPKNGKVVAVYGTLSDLLSVASSKLGIKATSVYNGKGGLIDDIALIRDDDVLFVCEGEPFIDPQTDSKPPEGLLGFHTDWLTLNVGGRYFTTTRSTLVNKEPDSMLAHMFKDKGVWGNKQDHRGAFLIDRSPEYFEPILNYLRHGQLIVNDGINLLGVLEEARFFGIDSLIEHLEVAIKNSQPPEDHSPISRKEFVRFLLATPTKSELRCQGLNFSGADLSRLDLRYINFKMANLSRCNLAHANLCCANLERADLSGSVLDCANLQGVKMLCSNAEGASLKLCNFEDPSGLKANLEGANLKGVDMEGSQMTGINLRVATLKNAKLKNCNLRGATLAGTDLENCDLSGCDLQEANLRGSNVKGAIFEEMLTPLHMSQSVR [KCTD9]	-1.4
MMAIRELKVCLLGDTGVGKSSIVCRFVQDHFDHNISPTIGASFMTKTVPCGNELHKFLIWDTAGQERFHSLAPMYYRGSAAAVIVYDITKQDSFYTLKKWVKELKEHGPENIVMAIAGNKCDLSDIREVPLKDAKEYAESIGAIVVETSAKNAINIEELFQGISRQIPPLDPHENGNNGTIKVEKPTMQASRRCC [RAB31]	-0.537

* * *

# Test system: HeLa Kyoto;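 further: synchronized HeLa Kyoto cells, proteins quantified by TMT10plex mass spectrometry, three biological replicates, mitosis taken 0.5 h after nocodazole release, G1/S directly after double thymidine block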
# experimentalProtocol: thermal stability score vs G1/S (z-score of summed log2 fold changes over temperatures); higher = more thermally stable than in G1/S
# appliedConditions: cell cycle stage: early G1 (4.5 h after nocodazole release)
Recorded measurements of thermal stability score, one per entry

constructSequence	thermal stability score
MMAIRELKVCLLGDTGVGKSSIVCRFVQDHFDHNISPTIGASFMTKTVPCGNELHKFLIWDTAGQERFHSLAPMYYRGSAAAVIVYDITKQDSFYTLKKWVKELKEHGPENIVMAIAGNKCDLSDIREVPLKDAKEYAESIGAIVVETSAKNAINIEELFQGISRQIPPLDPHENGNNGTIKVEKPTMQASRRCC [RAB31]	-1.38
MLRAGWLRGAAALALLLAARVVAAFEPITVGLAIGAASAITGYLSYNDIYCRFAECCREERPLNASALKLDLEEKLFGQHLATEVIFKALTGFRNNKNPKKPLTLSLHGWAGTGKNFVSQIVAENLHPKGLKSNFVHLFVSTLHFPHEQKIKLYQDQLQKWIRGNVSACANSVFIFDEMDKLHPGIIDAIKPFLDYYEQVDGVSYRKAIFIFLSNAGGDLITKTALDFWRAGRKREDIQLKDLEPVLSVGVFNNKHSGLWHSGLIDKNLIDYFIPFLPLEYRHVKMCVRAEMRARGSAIDEDIVTRVAEEMTFFPRDEKIYSDKGCKTVQSRLDFH [TOR1B]	2.27
MALLSTVRGATWGRLVTRHFSHAARHGERPGGEELSRLLLDDLVPTSRLELLFGMTPCLLALQAARRSVARLLLQAGKAGLQGKRAELLRMAEARDIPVLRPRRQKLDTMCRYQVHQGVCMEVSPLRPRPWREAGEASPGDDPQQLWLVLDGIQDPRNFGAVLRSAHFLGVDKVITSRRNSCPLTPVVSKSSAGAMEVMDVFSTDDLTGFLQTKAQQGWLVAGTVGCPSTEDPQSSEIPIMSCLEFLWERPTLLVLGNEGSGLSQEVQASCQLLLTILPRRQLPPGLESLNVSVAAGILLHSICSQRKGFPTEGERRQLLQDPQEPSARSEGLSMAQHPGLSSGPEKERQNEG [MRM1]	-1.62
MEMGRRIHLELRNRTPSDVKELVLDNSRSNEGKLEGLTDEFEELEFLSTINVGLTSIANLPKLNKLKKLELSDNRVSGGLEVLAEKCPNLTHLNLSGNKIKDLSTIEPLKKLENLKSLDLFNCEVTNLNDYRENVFKLLPQLTYLDGYDRDDKEAPDSDAEGYVEGLDDEEEDEDEEEYDEDAQVVEDEEDEDEEEEGEEEDVSGEEEEDEEGYNDGEVDDEEDEEELGEEERGQKRKREPEDEGEDDD [ANP32A]	0.819
MSGFENLNTDFYQTSYSIDDQSQQSYDYGGSGGPYSKQYAGYDYSQQGRFVPPDMMQPQQPYTGQIYQPTQAYTPASPQPFYGNNFEDEPPLLEELGINFDHIWQKTLTVLHPLKVADGSIMNETDLAGPMVFCLAFGATLLLAGKIQFGYVYGISAIGCLGMFCLLNLMSMTGVSFGCVASVLGYCLLPMILLSSFAVIFSLQGMVGIILTAGIIGWCSFSASKIFISALAMEGQQLLVAYPCALLYGVFALISVF [YIPF5]	-0.124

These data points were gathered from the supplement of paper PMC5998384.
